test-target: NLRP3 (Homo sapiens, UniProt Q96P20)
Construct: Seed THP-1 cells (25,000 cells/well) containing 1.0 μg/ml LPS in 40 μl of RPMI medium
Sequence (Q96P20 whole entry): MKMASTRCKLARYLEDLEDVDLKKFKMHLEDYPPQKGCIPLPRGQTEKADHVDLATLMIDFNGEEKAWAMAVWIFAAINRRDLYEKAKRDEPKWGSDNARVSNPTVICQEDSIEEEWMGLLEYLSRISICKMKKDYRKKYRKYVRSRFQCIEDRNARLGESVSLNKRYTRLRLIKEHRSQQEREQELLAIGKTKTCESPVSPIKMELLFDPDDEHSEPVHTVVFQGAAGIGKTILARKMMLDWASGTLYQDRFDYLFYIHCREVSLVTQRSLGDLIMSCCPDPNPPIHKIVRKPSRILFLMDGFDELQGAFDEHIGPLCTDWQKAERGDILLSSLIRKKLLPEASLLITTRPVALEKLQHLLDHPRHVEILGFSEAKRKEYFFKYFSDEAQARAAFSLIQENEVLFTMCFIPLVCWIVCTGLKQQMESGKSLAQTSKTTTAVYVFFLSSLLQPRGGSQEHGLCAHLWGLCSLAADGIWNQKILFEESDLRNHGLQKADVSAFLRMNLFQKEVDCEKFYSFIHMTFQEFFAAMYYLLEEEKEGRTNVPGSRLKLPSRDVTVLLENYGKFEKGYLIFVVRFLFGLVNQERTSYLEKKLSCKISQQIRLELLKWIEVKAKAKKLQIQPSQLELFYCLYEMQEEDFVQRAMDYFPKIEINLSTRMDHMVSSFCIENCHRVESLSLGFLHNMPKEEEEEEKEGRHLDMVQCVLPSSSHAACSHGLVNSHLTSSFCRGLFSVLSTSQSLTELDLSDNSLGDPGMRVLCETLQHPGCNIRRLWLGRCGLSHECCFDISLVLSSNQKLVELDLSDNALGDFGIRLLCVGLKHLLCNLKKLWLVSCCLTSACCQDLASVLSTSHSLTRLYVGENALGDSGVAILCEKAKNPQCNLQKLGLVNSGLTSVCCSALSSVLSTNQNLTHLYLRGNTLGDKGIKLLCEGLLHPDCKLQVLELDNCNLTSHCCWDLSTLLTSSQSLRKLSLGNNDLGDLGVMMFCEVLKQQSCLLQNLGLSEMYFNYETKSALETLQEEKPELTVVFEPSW
protocol-summary: THP-1 Cells Pyroptosis Assay
measurement-setup: THP-1 cells with 1.0 μg/ml LPS; compound 3 hours; nigericin 5 μM 1 hr; resazurin readout
IC50 values by entry
Quick reminder: number only, in nM, skip the unit.

Bench note: what IC50 did CCN1CCC[C@@H](Nc2nc3nc(-c4c(C)cc(C(F)(F)F)cc4O)cc(N4CC(O)C4)c3o2)C1 show?
6

Bench note: what IC50 did Cc1cc(C(F)(F)F)cc(O)c1-c1ccc2oc(N3CC[C@H]4CCN(C)C[C@H]43)nc2n1 (single isomer, unassigned) [Example 37B] show?
1.1

Bench note: what IC50 did CCN1CCC[C@@H](Nc2nc3nc(-c4c(O)cc(C(F)(F)F)cc4OC)ccc3o2)C1 show?
4

Bench note: what IC50 did Cc1cc(C(F)(F)F)cc(O)c1-c1ccc2oc(N3CCCC(O)C3)nc2n1 (racemic) [Example 3] show?
75.4
